The measured values listed here are drawn from patent US9447136B2.

# MIC Candida albicans STY31 per record follows
# Tested on: Candida albicans STY31
# assay-notes: Antifungal activity towards resistant (MDR) strains
# Assay type: cell-based
# settings: 5674 mutant derivative, deletion of CDR1 and CDR2
# Experimental: The determination of antifungal activity was performed by the serial dilutions method in buffered RPMI 1640 medium, in a 96-wells microplates, according to the standard procedure (National Committee for Clinical Laboratory Standards. Reference method for broth dilution antifungal susceptibility testing of yeast, approved standard, 2nd ed. M27-A2 vol. 22 Wayne, Pa., 2002). […]
observed-property: MIC Candida albicans STY31 (µg/mL)

compound="CCCN(CCC)[C@@H]1[C@H](O)[C@H](O[C@H]2/C=C/C=C/C=C/C=C/CC/C=C/C=C/[C@H](C)[C@@H](O)[C@@H](C)[C@H](C)OC(=O)C[C@H](O)C[C@H](O)C[C@H](O)CC[C@@H](O)[C@H](O)C[C@]3(O)C[C@H](O)[C@@H](C(=O)O)[C@H](C2)O3)O[C@H](C)[C@H]1O [Compound N22, N,N-di-n-propylnystatin A1]" observed_property="MIC Candida albicans STY31" output_unit=µg/mL measured_number=4
compound="CCN(CC)[C@@H](Cc1ccccc1)C(=O)NC1C(O)C(C)OC(O[C@H]2/C=C/C=C/C=C/C=C/CC/C=C/C=C/[C@H](C)[C@@H](O)[C@@H](C)[C@H](C)OC(=O)C[C@H](O)C[C@H](O)C[C@H](O)CC[C@@H](O)[C@H](O)CC3(O)C[C@H](O)[C@@H](C(=O)O)[C@H](C2)O3)C1O (stereo partly shown) [Compound N46]" observed_property="MIC Candida albicans STY31" output_unit=µg/mL measured_number=32
compound="CC1OC(O[C@H]2/C=C/C=C/C=C/C=C/CC/C=C/C=C/[C@H](C)[C@@H](O)[C@@H](C)[C@H](C)OC(=O)C[C@H](O)C[C@H](O)C[C@H](O)CC[C@@H](O)[C@H](O)CC3(O)C[C@H](O)[C@@H](C(=O)O)[C@H](C2)O3)C(O)C(NC(=S)NCC(C)(C)CN(C)C)C1O (stereo partly shown) [Compound N19]" observed_property="MIC Candida albicans STY31" output_unit=µg/mL measured_number=4
compound="C[C@@H]1[C@H](O)[C@@H](C)/C=C/C=C/CC/C=C/C=C/C=C/C=C/[C@H](O[C@@H]2O[C@H](C)[C@@H](O)[C@H](NC(=O)[C@H](N)c3ccccc3)[C@@H]2O)C[C@@H]2O[C@](O)(C[C@@H](O)C[C@@H](O)[C@H](O)CC[C@@H](O)C[C@@H](O)CC(=O)O[C@H]1C)C[C@H](O)[C@H]2C(=O)O [Compound N33, N-D-phenylglycylnystatin A1]" observed_property="MIC Candida albicans STY31" output_unit=µg/mL measured_number=16
